- assayedSystem: EGFRvIII-rabbit Fc fusion protein (EGFRvIII-RbFc) (human; rabbit) (UniProt P00533)
- protocolText: ELISA, transfection supernatant titrated on EGFRvIII-Rab Ig Fc coat
valueKind: titre, antigen binding (抗原结合) (titre (1:x dilution))

These recorded examples may help you get a feel for the data.
SC-EGFRvIII-XG1-333 (antibody, human IgG1, V domains shown) VH: QVQLVESGGGVVQPGRSLRLSCVASGFTLSSYGMHWVRQALGKGLEWVAVTSYDGSKKDYADSVKGRFTISRDNSKNTLYLQMNSLRAEDTAVYYCVSEGYCDSTSCYKYYYYGMDVWGQGTTVTVSS VL: DIVMTQSPLSLPVTPGEPASISCRSSQSLLYRNGNNYLDWYLQRPGQSPQLLIYLGSNRASGVPDRFSGSGSGTDFTLKISRVEAEDVGVYYCMQALQTPRTFGQGTKVEIK; > 64
SC-EGFRvIII-XG1-318 (antibody, human IgG1, V domains shown) VH: QVQLVESGGGVVQPGRSLRLSCVASGFTLSSYGMHWVRQAPGKGLEWVAVTSYDGSKKDYADSVKGRFTISRDNSKNTLYLQMNSLRAEDTAVYYCVSEGYCDSSSCYKYYYYGMDVWGQGTTVTVSS VL: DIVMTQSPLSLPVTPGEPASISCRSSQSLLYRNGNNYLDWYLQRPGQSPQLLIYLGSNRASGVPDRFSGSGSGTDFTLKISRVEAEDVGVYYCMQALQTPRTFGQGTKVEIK; 64
SC-EGFRvIII-XG2-150 (antibody, human IgG1, V domains shown) VH: QVQLQQSGPGLVKPSQTLSLTCAISGDSVSSYSSAWNWIRQSPSRGLEWLGRAYHRSRWYYEYAVSVKSRINITPDTSKNQFSLQLNSVTPEDTAVYYCARGSRFDYWGQGTLVTVSS VL: DIVMTQTPLSSPVTLGQPASISCRSSQSLVHRDGNTYLSWLQQRPGQPPRLLIYKISNRFSGVPDRFSGSGAGTDFTLKISRVEAEDVGIYFCMHTTQFPWTFGQGTRVEIK; > 64
SC-EGFRvIII-XG1-211 (antibody, human IgG1, V domains shown) VH: QVQLVESGGGVVQPGRSLRLSCVASGFTLSSYGMHWVRQAPGKGLEWVAVTSYDGSKKDYADSAKGRFTISRDNSKNTLYLQMNSLRAEDTAVYYCVSEGYCSSSSCYKYYYYGMDVWGQGTTVTVSS VL: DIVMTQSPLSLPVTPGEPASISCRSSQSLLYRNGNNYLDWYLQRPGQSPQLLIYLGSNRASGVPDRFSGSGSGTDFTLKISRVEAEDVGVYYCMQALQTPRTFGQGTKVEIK; > 64
SC-EGFRvIII-XG1-123/124 (antibody, human IgG1, V domains shown) VH: QVQLVESGGGVVQPGRSLRLSCAASGFTLSSYGMHWVRQAPGKGLEWVAVMSYDGSKEDYADSVKGRFTISRDNSENTLYLQMNSLRAEDTAVYYCVSEGYCSSRSCYKYYYYGMDVWGQGTTVTVSS VL: DIVMTQSPLSLPVTPGEPASISCRSSQSLLYRNGNNYLDWYLQKPGQSPQLLIYLGSNRASGVPDRFSGSGSGTDFTLNISRVEAEDVGHYYCMQALQTPRTFGQGTKVEIK; > 64

Now take the following binder into account.
In: Bench note: what titre, antigen binding (抗原结合) (titre (1:x dilution)) did SC-EGFRvIII-XG1-139 (antibody, human IgG1, V domains shown) VH: EVQVLESGGGLVQPGGSLRLSCAASGFTFSSYAMSWVRQAPGKGLEWVSAISGSGGSTNYADSVKGRFTISRDNSKNTLYLQMNSLRAEDTAVYYCAGSSGWSEYWGQGTLVTVSS VL: DIQMTQSPSSLSASVGDRVTITCRASQGIRNNLAWYQQKPGKAPKRLIYAASNLQSGVPSRFTGSGSGTEFTLIVSSLQPEDFATYYCLQHHSYPLTSGGGTKVEIK show?
Out: > 64
